Test system: Serratia marcescens expressing IMP-1 (CL5741)
Type: cell-based
Conditions: with imipenem 1 μg/ml; 95% inhibition of bacterial growth
Exercise: state measured Serratia marcescens (IMP-1) MITC95 for each of the compounds provided.
Number only, in µM; omit the unit.

Query "CN([C@H]1CCNC1)S(=O)(=O)c1ccc(-c2cccc3[nH]c(N)nc23)c(-c2nn[nH]n2)c1S(N)(=O)=O" yields Serratia marcescens (IMP-1) MITC95 of 1.563

Query "Cn1nnc2c(-c3ccc(S(=O)(=O)N[C@H]4CCNC4)c(S(N)(=O)=O)c3-c3nn[nH]n3)cccc21" yields Serratia marcescens (IMP-1) MITC95 of 3.125

Query "NC[C@H](CO)NS(=O)(=O)c1ccc(-c2cccc3nc(N)[nH]c23)c(-c2nn[nH]n2)c1S(N)(=O)=O" yields Serratia marcescens (IMP-1) MITC95 of 0.7813

Query "NC(=O)c1nc2c(-c3ccc(S(=O)(=O)N[C@@H]4CCNC4)c(S(N)(=O)=O)c3-c3nn[nH]n3)cccc2[nH]1" yields Serratia marcescens (IMP-1) MITC95 of 0.7813

Query "CNc1ccc(-c2ccc(S(=O)(=O)N[C@@H]3CCNC3)c(S(N)(=O)=O)c2-c2nn[nH]n2)cn1" yields Serratia marcescens (IMP-1) MITC95 of 0.7813

Query "NCCNS(=O)(=O)c1ccc(-c2cccc(SC[C@H](O)CN)c2)c(-c2nn[nH]n2)c1S(N)(=O)=O" yields Serratia marcescens (IMP-1) MITC95 of 0.7813

Query "Nc1ccc(-c2ccc(S(=O)(=O)N[C@H]3CNC[C@H]3N)c(S(N)(=O)=O)c2-c2nn[nH]n2)cn1" yields Serratia marcescens (IMP-1) MITC95 of 1.563

###

Exercise: state measured Serratia marcescens (IMP-1) MITC95 for each of the molecules provided.
System: Serratia marcescens expressing IMP-1 (CL5741)
Assay type: cell-based
Details: with imipenem 1 μg/ml; 95% inhibition of bacterial growth
Number only, in µM; omit the unit.

Query C[C@@H](CN)NS(=O)(=O)c1ccc(-c2cccc3sc(N)nc23)c(-c2nn[nH]n2)c1S(N)(=O)=O [Example 389] yields Serratia marcescens (IMP-1) MITC95 of 3.125

Query NCCNS(=O)(=O)c1ccc(-c2cccc3ccc(N)nc23)c(-c2nn[nH]n2)c1S(N)(=O)=O [Example 355] yields Serratia marcescens (IMP-1) MITC95 of 0.7813

Query NCCCNS(=O)(=O)c1ccc(-c2cc(F)cc3[nH]c(N)nc23)c(-c2nn[nH]n2)c1S(N)(=O)=O [Example 402] yields Serratia marcescens (IMP-1) MITC95 of 0.7813

Query CNc1nc2c(-c3ccc(S(=O)(=O)NCCN)c(S(N)(=O)=O)c3-c3nn[nH]n3)cccc2[nH]1 [Example 467] yields Serratia marcescens (IMP-1) MITC95 of 0.7813

Query NCc1nc(-c2cccc(-c3ccc(S(=O)(=O)N[C@H]4CNC[C@H]4N)c(S(N)(=O)=O)c3-c3nn[nH]n3)c2)c[nH]1 [Example 462] yields Serratia marcescens (IMP-1) MITC95 of 1.563

Query Cc1ccc(-c2ccc(S(=O)(=O)NCCN)c(S(N)(=O)=O)c2-c2nn[nH]n2)c2nc(N)[nH]c12 [Example 329] yields Serratia marcescens (IMP-1) MITC95 of 1.563

Query Nc1ncc(-c2ccc(S(=O)(=O)N[C@@H]3CNC[C@@H]3N)c(S(N)(=O)=O)c2-c2nn[nH]n2)s1 [Example 321] yields Serratia marcescens (IMP-1) MITC95 of 1.563

###

Tested on: Pseudomonas aeruginosa PAO1 MB9798 (efflux+, IMP-1)
Conditions: ratio MITC95 PA 9798/MITC95 PA 9799; imipenem at 2 μg/mL
Exercise: state measured Efflux ratio for each of the molecules provided.
I only need the number, thanks.

Query "NCCNS(=O)(=O)c1ccc(-c2cccc3cn[nH]c23)c(-c2nn[nH]n2)c1S(N)(=O)=O" yields Efflux ratio of 0.50

Query "Nc1nc2c(-c3ccc(S(=O)(=O)N[C@@H]4CCNC4)c(S(N)(=O)=O)c3-c3nn[nH]n3)cc(I)cc2[nH]1" yields Efflux ratio of 1.00

Query "Nc1ccc2cccc(-c3ccc(S(=O)(=O)N[C@H]4CNC[C@H]4N)c(S(N)(=O)=O)c3-c3nn[nH]n3)c2n1" yields Efflux ratio of 1.00

Query "Cc1ccc(-c2ccc(S(N)(=O)=O)c(S(N)(=O)=O)c2-c2nn[nH]n2)c2nc(N)sc12" yields Efflux ratio of 1.00

Query "Nc1ncccc1-c1ccc(S(=O)(=O)NC[C@H]2CNCCN2)c(S(N)(=O)=O)c1-c1nn[nH]n1" yields Efflux ratio of 2.00

Query "CNS(=O)(=O)c1ccc(-c2cccc3sc(N)nc23)c(-c2nn[nH]n2)c1S(N)(=O)=O" yields Efflux ratio of 8.00

Query "Nc1cccc(-c2ccc(S(=O)(=O)N[C@@H]3CCNC3)c(S(N)(=O)=O)c2-c2nn[nH]n2)n1" yields Efflux ratio of 1.00

###

Exercise: state measured Efflux ratio for each of the compounds provided.
System: Pseudomonas aeruginosa PAO1 MB9798 (efflux+, IMP-1)
Settings: ratio MITC95 PA 9798/MITC95 PA 9799; imipenem at 2 μg/mL
Description: The strain background was Pseudomonas aeruginosa PAO1. The strain set was then used as a pair to determine the effect of metallo-β-lactamase inhibitors of Formula I on the MIC of imipenem and/or ceftazidime. […] A serial titration of the metallo-β-lactamase inhibitor was included and the concentration of metallo-β-lactamase inhibitor which restores susceptibility of the strain to the included antibiotic was recorded. […]
I only need the number, thanks.

Query "NCCNS(=O)(=O)c1ccc(-c2cccc3[nH]c([C@@H](N)CN)nc23)c(-c2nn[nH]n2)c1S(N)(=O)=O" yields Efflux ratio of 2.00

Query "Cn1c(N)nc2c(-c3ccc(S(=O)(=O)N[C@H]4CCNC4)c(S(N)(=O)=O)c3-c3nn[nH]n3)cccc21" yields Efflux ratio of 1.00

Query "Nc1cc(-c2ccc(S(=O)(=O)N[C@@H]3CCNC3)c(S(N)(=O)=O)c2-c2nn[nH]n2)ccn1" yields Efflux ratio of 2.00

Query "NS(=O)(=O)c1ccc(-c2ccc(S(=O)(=O)N[C@@H]3CCNC3)c(S(N)(=O)=O)c2-c2nnn[nH]2)cc1" yields Efflux ratio of 1.00

Query "Nc1ccc(-c2ccc(S(=O)(=O)NC[C@H]3CNCCN3)c(S(N)(=O)=O)c2-c2nn[nH]n2)cn1" yields Efflux ratio of 1.00

Query "Nc1ccc(-c2ccc(S(=O)(=O)N[C@@H]3CCNC3)c(S(N)(=O)=O)c2-c2nn[nH]n2)cn1" yields Efflux ratio of 0.80

Query "NC[C@@H](CO)NS(=O)(=O)c1ccc(-c2cccc3sc(N)nc23)c(-c2nnn[nH]2)c1S(N)(=O)=O" yields Efflux ratio of 0.50

Query NCC(=O)NC1CCC[C@@H](c2ccc(S(=O)(=O)N[C@@H]3CCNC3)c(S(N)(=O)=O)c2-c2nn[nH]n2)C1 (some centres unmarked) yields Efflux ratio of 1.00

Query "CN1CC(NS(=O)(=O)c2ccc(-c3cccc4[nH]c(N)nc34)c(-c3nn[nH]n3)c2S(N)(=O)=O)C1" yields Efflux ratio of 1.00

Query "NCc1nc2c(-c3ccc(S(=O)(=O)NC[C@@H](O)CN)c(S(N)(=O)=O)c3-c3nn[nH]n3)cccc2s1" yields Efflux ratio of 1.00

Query "NCCNS(=O)(=O)c1ccc(-c2cccc3[nH]c([C@@H](N)CO)nc23)c(-c2nn[nH]n2)c1S(N)(=O)=O" yields Efflux ratio of 1.00

Query "NCc1nc2c(-c3ccc(S(=O)(=O)N[C@@H]4CCNC4)c(S(N)(=O)=O)c3-c3nn[nH]n3)cccc2[nH]1" yields Efflux ratio of 1.00

Query "Nc1nc2c(-c3ccc(S(=O)(=O)N[C@H]4CO[C@H]5[C@H]4OC[C@H]5O)c(S(N)(=O)=O)c3-c3nnn[nH]3)cccc2s1" yields Efflux ratio of 2.00

Query "CNc1nc2c(-c3ccc(S(=O)(=O)N[C@@H]4CCNC4)c(S(N)(=O)=O)c3-c3nn[nH]n3)cccc2[nH]1" yields Efflux ratio of 0.50

###

Tested on: Pseudomonas aeruginosa PAO1 MB9798 (efflux+, IMP-1)
Settings: ratio MITC95 PA 9798/MITC95 PA 9799; imipenem at 2 μg/mL
QUANTITY: Efflux ratio
I only need the number, thanks.

Query "Nc1nc2c(-c3ccc(S(N)(=O)=O)c(S(N)(=O)=O)c3-c3nn[nH]n3)cccc2o1" yields Efflux ratio of 1.00

Query "NCCCCNS(=O)(=O)c1ccc(-c2cccc3[nH]c(N)nc23)c(-c2nn[nH]n2)c1S(N)(=O)=O" yields Efflux ratio of 1.00

Query "NCCCNS(=O)(=O)c1ccc(-c2cccc3sc(N)nc23)c(-c2nnn[nH]2)c1S(N)(=O)=O.O=C(O)C(F)(F)F" yields Efflux ratio of 0.50

Query "NS(=O)(=O)c1c(S(=O)(=O)N[C@@H]2CCNC2)ccc(-c2cccc(-c3nc[nH]n3)c2)c1-c1nn[nH]n1" yields Efflux ratio of 1.00

Query Nc1nc2c(-c3ccc(S(=O)(=O)NCC4CNCCO4)c(S(N)(=O)=O)c3-c3nnn[nH]3)cccc2s1.O=C(O)C(F)(F)F (centres unmarked) yields Efflux ratio of 1.00

Query "NCc1nc2cc(-c3ccc(S(=O)(=O)N[C@@H]4CCNC4)c(S(N)(=O)=O)c3-c3nn[nH]n3)ccc2[nH]1" yields Efflux ratio of 1.00

Query "Nc1nc2c(-c3ccc(S(=O)(=O)N4CCOCC4)c(S(N)(=O)=O)c3-c3nnn[nH]3)cccc2s1" yields Efflux ratio of 16.00

Query "Nc1nc2c(-c3ccc(S(=O)(=O)N[C@H]4CCCNC4)c(S(N)(=O)=O)c3-c3nnn[nH]3)cccc2[nH]1" yields Efflux ratio of 2.00

Query "Nc1ncccc1-c1ccc(S(=O)(=O)N[C@H]2C[C@@H]2N)c(S(N)(=O)=O)c1-c1nn[nH]n1" yields Efflux ratio of 4.00

Query "Nc1nc2c(-c3ccc(S(=O)(=O)N[C@H]4CNC[C@@H]4F)c(S(N)(=O)=O)c3-c3nnn[nH]3)cccc2s1" yields Efflux ratio of 1.00

Query "Cn1cnc(CNS(=O)(=O)c2ccc(-c3cccc4sc(N)nc34)c(-c3nnn[nH]3)c2S(N)(=O)=O)n1" yields Efflux ratio of 1.00

Query "Nc1ccc(-c2ccc(S(=O)(=O)NC[C@]3(N)CCNC3)c(S(N)(=O)=O)c2-c2nn[nH]n2)cn1" yields Efflux ratio of 1.00

Query "Nc1ccc(-c2ccc(S(=O)(=O)NC[C@H](N)CO)c(S(N)(=O)=O)c2-c2nn[nH]n2)cn1" yields Efflux ratio of 1.00

Query Nc1nc2c(-c3ccc(S(=O)(=O)NCC4CCN4)c(S(N)(=O)=O)c3-c3nn[nH]n3)cccc2[nH]1 (centres unmarked) yields Efflux ratio of 2.00
